Tested on: Human papillomavirus type 1a protein E7 (residues 44-93)
ASSAY PROTOCOL: HPV1a E7 fragment binders on microarrays, primary screen, biochemical, small-molecule microarray, residues 44-93, 635 nm fluorescence (AID 1108);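 also: E7 fragment applied at 1 µg/mL in TBST for 1 h at 4 C; score combines spot fluorescence with its signal to noise ratio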
EXPERIMENTAL PARAMETERS: small-molecule microarray binding, fluorescence 635 nm; higher = more signal
Field: composite z-score. Provide a value for each of the compounds that follow.
When you answer, write just the number.

Entry under review: "COCCOC(=O)N1C(=O)[C@@]2(c3cc(C#CC4(O)CCCCCC4)ccc31)[C@H](C(=O)N1CCCCCCC1)[C@H]1C(=O)O[C@H](c3ccccc3)[C@H](c3ccccc3)N1[C@@H]2c1ccc(OCCO)cc1" . Reported composite z-score?
1.33

Which composite z-score is reported for this compound? "COC(=O)c1c(CC[C@@H](CO)NC(=O)N[C@H](Cn2cc(-c3ccccc3C)nn2)C(C)C)oc(C(C)=O)c1C(=O)OC"
-0.794

Sample "COc1cc(CO)cc(I)c1O[C@H]1C=C(C(=O)NCCO)C[C@@H](N(CC2CCCCC2)C(=O)c2ccc(C(F)(F)F)cc2)[C@@H]1O" — what was its composite z-score?
1.15

For the compound shown here, CC1CC/C=C\[C@H]2OC34C=CCN(C(C)C)C(=O)[C@H]3N(CCCCCO)C(=O)[C@@H]4C2C(=O)O1 (some centres not stated) , give the reported composite z-score.
-0.806

# composite z-score lookup, item "COc1ccc([Si](C)(C)[C@H]2[C@H](CCO)O[C@@]3(C(=O)N(Cc4cccc(N5CCCCC5=O)c4)c4ccccc43)[C@@H]2C)cc1"
1.25

# get_value(readout='composite z-score', item= "COCCCNC(=O)[C@@H]1c2ccccc2C(=O)N(Cc2ccccc2C(F)(F)F)[C@H]1c1ccc(CO)cc1" )
0.367

Need composite z-score, item "CCOC(=O)C1=CC[C@@H](c2ccccc2C(F)(F)F)N(S(=O)(=O)c2ccc(C)cc2)C1"
0.648

###

Provide the reported z-score of each item.
ASSAY PROTOCOL: basal S. cerevisiae growth modulation, no modifier, primary screen, OD600, strain BY4716, 24 h, basal condition (AID 1173)
EXPERIMENTAL PARAMETERS: OD600, 24 h, higher = more signal, called active from +8 up or from −8 down
Write no unit; give the number alone.

Fill blank: measured z-score of the molecule "[N-]=[N+]=NCc1ccccc1C[C@@]1(C(N)=O)N=C(c2ccc(OCCCO)cc2)O[C@@H]1c1ccccc1CN=[N+]=[N-]" is ____.
-1.43

Bench note: what z-score did "Cc1ccc(S[C@]2(C(=O)NCC(C)C)CC(=O)N(Cc3ccccc3Cl)[C@@H]2c2ccc(CO)cc2I)cc1" show?
-1.61

I am curious: what z-score value has been reported for "COc1ccc([Si](C)(C)[C@@H]2[C@@H](CC(=O)N3CCC[C@H]3CO)O[C@]3(C(=O)N(Cc4ccc(N5C(=O)c6cccc7cccc5c67)cc4)c4ccccc43)[C@H]2C)cc1" ?
0.165

###

ASSAY PROTOCOL: A549 lung cancer cell viability effects, profiling panel, resazurin fluorescence, 24 h, PK04 Diversity Set (AID 1171); also: test concentration not given here
EXPERIMENTAL PARAMETERS: higher = more signal, called active from +8 up or from −8 down
Calls of active or inactive are those of the source.
VALUE TYPE: z-score

Entry under review: "COc1cc2c(cc1OC)CN(C(=O)[C@@H]1[C@H]3C(=O)O[C@H](c4ccccc4)[C@H](c4ccccc4)N3[C@H](c3ccccc3OCCO)[C@@]13C(=O)Nc1ccc(C#CC4(O)CCCCCC4)cc13)CC2" . Reported z-score?
-0.373 (inactive)

Record request: z-score value, item "COCCOC(=O)N1C(=O)[C@@]2(c3cc(C#CC4(O)CCCCCC4)ccc31)[C@H](c1ccccc1OCCO)N1[C@H](c3ccccc3)[C@H](c3ccccc3)OC(=O)[C@H]1[C@@H]2C(N)=O"
-2.94 (inactive)

Name the recorded z-score for "[N-]=[N+]=NCc1ccccc1C[C@@]1(C(N)=O)N=C(c2ccc(OCCCO)cc2)O[C@@H]1c1ccccc1CN=[N+]=[N-]" .
-0.136 (inactive)

Given the compound "C=C(CCCC)C(=O)CC[C@@H](OC(=O)c1ccccc1-c1ccccc1C(=O)O)c1cccc(OCCO)c1" , what is its reported z-score?
0.675 (inactive)

Which z-score is listed for "COC(=O)[C@@]1(Cc2ccccc2)[C@H]2c3cc(C(=O)N4CCCC4)[nH]c3C[C@H]2CN1C(=O)c1ccccc1" ?
0.412 (inactive)

Which z-score value belongs to C[C@H]1C2=C3C(CC[C@H]4C(OCc5ccc(F)cc5C(F)(F)F)OC[C@](C)([C@@H]34)N(C(=O)OC(C)(C)C)C2)C(CO)C1CO (some centres undefined) ?
-0.629 (inactive)

So what does the record say about z-score for "NC(N)=NCc1cn(CCc2c[nH]c3ccccc23)nn1" ?
-0.975 (inactive)

Would you mind telling me what z-score value was observed for "CCOC(=O)[C@@H]1[C@@H]2C(=O)N(CC)C(=O)[C@@H]2C[C@@H]1Sc1ccccc1" ?
1.06 (inactive)

Which z-score value is on record for "COC(=O)[C@@]1(Cc2ccccc2)[C@H]2c3cc(C(=O)N4CCCC4)n(Cc4cc(F)cc5c4OCOC5)c3C[C@H]2CN1C(=O)c1ccccc1" ?
-0.522 (inactive)

# query: z-score of entry CC=CC(O)C1C=CC2C(=O)N(c3ccccc3)C(=O)C2N1Nc1ccccc1 (centres undefined)
0.0599 (inactive)

Find the recorded z-score belonging to "CCOC(=O)C1=CC[C@@H](c2ccccc2)N(S(=O)(=O)c2ccc(C)cc2)C1" and report it.
-0.145 (inactive)

Fill in the blank: the reported z-score of "C=C(C(=O)CC[C@H](OC(C)=O)c1cccc(OCCO)c1)C(C)C" is ____.
-0.62 (inactive)

Please report the recorded z-score for COc1cc(OC)c(C(O)C2C=CC3C(=O)N(c4ccccc4)C(=O)C3N2Nc2ccc(C#N)cc2)cc1Br (centres undefined) .
-0.578 (inactive)

I have this compound here, "CN1C(=O)[C@@]2(CCS(=O)(=O)c3ccccc3)N=C(c3ccc(OCCCO)cc3)O[C@H]2c2ccccc21" , and I need its recorded z-score.
-0.254 (inactive)

Endpoint output: z-score of "[N-]=[N+]=NCc1ccccc1C[C@@]1(C(=O)N2CCCCC2)N=C(c2ccc(OCCCO)cc2)O[C@@H]1c1ccccc1N=[N+]=[N-]" . Value?
0.0861 (inactive)

Suppose we examine the compound "[N-]=[N+]=Nc1ccccc1[C@@H]1OC(c2ccc(OCCCO)cc2)=N[C@]1(CCS(=O)(=O)c1ccccc1)C(=O)NCCN1CCOCC1" ; what z-score value has been reported?
0.465 (inactive)

If you can, please state the reported z-score value of "O=C1O[C@@H](c2ccccc2)[C@@H](c2ccccc2)N2[C@@H](c3ccccc3OCCO)[C@]3(C(=O)Nc4ccc(C#CCCO)cc43)[C@@H](C(=O)Nc3nc4ccccc4s3)[C@H]12" .
0.2 (inactive)

// z-score lookup, key: "CC(=O)NCCCC[C@@H]1NC(=O)[C@@H]2C[C@H](C(=O)O)[C@H](c3ccc(O)cc3)N2C1=O"
-0.179 (inactive)

Look up z-score for this compound: "CC(C)CNC(=O)[C@@]1(c2ccc([N+](=O)[O-])cc2)CC(=O)N(C2CCCCC2)[C@@H]1c1ccc(CO)cc1I"
1.02 (inactive)

# query: z-score of entry "C=CCN1C(=O)[C@@]2(O[C@@H](CCO)[C@H]([Si](C)(C)c3ccc(OC)cc3)[C@H]2C)c2cc(N3C(=O)c4ccccc4Oc4ccccc43)ccc21"
-4.55 (inactive)

Query: z-score; subject: "C=C(/C=C/CNS(=O)(=O)c1ccc(C)cc1)[C@H](O)[C@H]1CCCN1S(=O)(=O)c1ccccc1[N+](=O)[O-]"
0.594 (inactive)

Quick one: z-score for "C=C(CCCC)/C(=C/C[C@@H](OC(C)=O)c1ccc(CO)o1)c1cc(C(=O)OC)ccc1OC" ?
0.111 (inactive)

Entry under review: CC1CC/C=C\[C@H]2OC34C=CCN(CCN5CCOCC5)C(=O)[C@H]3N(CCO)C(=O)[C@@H]4C2C(=O)O1 (some centres undefined) . Reported z-score?
-0.451 (inactive)

Name the reported z-score value associated with the compound "C=CCOC(=O)[C@H]1[C@@H]2C(=O)O[C@@H](c3ccccc3)[C@@H](c3ccccc3)N2[C@@H](c2ccc(OCCOC(=O)[C@H]3C[C@H]4C(=O)N[C@@H](Cc5ccccc5)C(=O)N4[C@H]3c3cccc(OCCO)c3)cc2)[C@]12C(=O)Nc1ccc(I)cc12"
-0.461 (inactive)

Name the reported z-score value associated with the compound "NCCCCCCNC(=O)[C@H]1C[C@H]2C(=O)N[C@@H](Cc3ccccc3)C(=O)N2[C@H]1c1ccc(O)cc1"
1.18 (inactive)

Which z-score reading was recorded for the compound "O=c1cccc(-c2cccc(Cl)c2)o1" ?
0.0053 (inactive)

Given the compound COC(=O)C1(Cc2ccccc2)C=C2C(=C(C(C)C)C(=O)C2C)CN1 (centres undefined) , what is its reported z-score?
-1.33 (inactive)

Would you kindly share the measured z-score for "CCOC(=O)C[C@H]1[C@H](OC(=O)c2ccc(-c3ccccc3)cc2)[C@@H](NC(=O)C2CCCCC2)c2cc(OCCCO)ccc2N1C(=O)c1ccccc1" ?
-1.01 (inactive)

Requested read-out: z-score. Entry: "CC(C)NC(=O)[C@@]1(C)c2ccccc2C(=O)N(C(C)C)[C@H]1c1ccc(CO)cc1"
-0.271 (inactive)

src = PubChem BioAssay
